- System: PC-3 prostate
- EXPERIMENT: NCI tumour cell line growth inhibition, 384-well format
Listing of entries alongside the reported TGI.
// return numeric value only (unit: µM, not printed)

Return TGI measured with PC-3 prostate given this molecule: "Cc1[nH]c(/C=C2\C(=O)Nc3ccc(S(=O)(=O)Cc4c(Cl)cccc4Cl)cc32)c(C)c1C(=O)N1CCC[C@@H]1CN1CCCC1"
3.11

# iterate: "C=CC(=O)N[C@H]1C=C(C)c2c(-c3cnc4ccccc4c3)c3c(N)ncnc3n2C1"
98.8

# iterate: "CN(C)CC(=O)N1CCC(c2ccc(NC(=O)c3ncc(C#N)[nH]3)c(C3=CCCCC3)c2)CC1"
17.3

Reference source for all entries: PubChem BioAssay (NCI)
